For each entry below, report its IC50 value.
- system.tested: UniProtKB P31424
- Sequence (P31424 whole entry, looked up): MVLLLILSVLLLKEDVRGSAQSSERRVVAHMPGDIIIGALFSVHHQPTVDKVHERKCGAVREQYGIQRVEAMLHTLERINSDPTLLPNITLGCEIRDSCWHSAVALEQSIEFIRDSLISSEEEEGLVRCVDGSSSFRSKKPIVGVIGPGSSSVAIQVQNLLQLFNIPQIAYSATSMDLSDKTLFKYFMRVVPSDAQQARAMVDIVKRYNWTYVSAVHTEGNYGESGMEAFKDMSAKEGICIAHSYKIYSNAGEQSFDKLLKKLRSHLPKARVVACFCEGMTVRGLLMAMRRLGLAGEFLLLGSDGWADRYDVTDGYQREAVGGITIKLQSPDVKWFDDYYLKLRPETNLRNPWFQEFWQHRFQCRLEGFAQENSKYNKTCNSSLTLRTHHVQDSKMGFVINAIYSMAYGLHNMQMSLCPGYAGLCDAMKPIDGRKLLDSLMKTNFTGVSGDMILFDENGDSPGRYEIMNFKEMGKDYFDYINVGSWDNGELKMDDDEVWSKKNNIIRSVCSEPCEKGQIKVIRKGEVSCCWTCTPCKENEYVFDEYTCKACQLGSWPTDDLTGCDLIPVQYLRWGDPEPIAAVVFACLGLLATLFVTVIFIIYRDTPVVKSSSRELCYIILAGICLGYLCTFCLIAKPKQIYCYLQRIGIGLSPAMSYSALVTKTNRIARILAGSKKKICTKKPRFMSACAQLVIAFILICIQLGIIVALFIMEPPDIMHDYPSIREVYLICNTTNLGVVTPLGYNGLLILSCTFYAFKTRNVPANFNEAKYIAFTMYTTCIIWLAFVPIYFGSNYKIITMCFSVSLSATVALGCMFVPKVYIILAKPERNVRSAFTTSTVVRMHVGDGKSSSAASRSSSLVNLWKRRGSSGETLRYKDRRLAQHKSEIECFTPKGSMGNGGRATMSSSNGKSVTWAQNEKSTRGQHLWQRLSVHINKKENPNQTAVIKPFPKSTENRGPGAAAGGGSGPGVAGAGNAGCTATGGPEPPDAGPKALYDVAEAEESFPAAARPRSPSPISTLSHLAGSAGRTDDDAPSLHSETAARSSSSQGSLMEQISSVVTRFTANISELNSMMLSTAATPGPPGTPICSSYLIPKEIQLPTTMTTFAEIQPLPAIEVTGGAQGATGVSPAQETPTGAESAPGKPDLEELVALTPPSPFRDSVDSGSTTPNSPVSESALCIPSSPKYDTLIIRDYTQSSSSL
- test.name: Activity in agonist-induced phosphoinositide hydrolysis in CHO cells expressing mGluR5a
Reply with just the number (in nM).

Entry `Cc1nc(C#Cc2ccc(F)cc2)cs1` — recorded IC50 = 2970

Lookup result for `Cc1nc(C#Cc2cncc(Br)c2)cs1` ; measured IC50: 60

Value of measured IC50 for the entry `COc1cccc(C#Cc2csc(C)n2)c1` : 49

Noted for `CC(=O)Nc1cccc(C#Cc2csc(C)n2)c1` : its IC50 reads 2020

Recorded result, `Cc1nc(/C=C/c2cccnc2)cs1` , IC50: 3090

Recorded IC50 (compound `Cc1nc(C#Cc2cccc(O)c2)cs1` ): 654

Per the record, `Cc1nc(C#Cc2ccccc2F)cs1` has IC50 of 140

Record summary for `Cc1nc(C#Cc2cccs2)cs1` : reported IC50 = 475

Value of measured IC50 for the entry `C#Cc1ncccc1C#Cc1csc(C)n1` : 192

Lookup result for `C#Cc1cncc(C#Cc2csc(C)n2)c1` ; measured IC50: 19.2

IC50 in this record for `CCc1sc(C)nc1C#Cc1cccnc1` : 1240

Consider `C#Cc1ccc(C#Cc2csc(C)n2)cn1` . Its measured IC50 is 2950

IC50 reported for this compound `Nc1nc(C#Cc2cccc(F)c2)cs1` : 78.6

Documented IC50 of `Cc1nc(C#Cc2cncc(-c3ccc(F)cc3)c2)cs1` : 162

get_value(item= `Cc1nc(C#Cc2cccc(Cl)c2)cs1` , readout=IC50) returns 129

// `Cc1nc(C#Cc2ccsc2)cs1` : IC50 value = 337

For this compound ( `Cc1nc(C#Cc2ccc(-c3ccc(F)cc3)nc2)cs1` ), measured IC50 is 10.2

Form: compound = `COc1ccc(C#Cc2csc(C)n2)cn1` ; IC50 = 426

Kindly note the recorded IC50 for `COc1ccc(-c2cncc(C#Cc3csc(C)n3)c2)cc1` , which is 225
